# Lookup of reported inhibition at 1 µM keyed by entry
Biological target: HMG-CoA reductase of rat's liver microsome (Rattus norvegicus, UniProt P51639)
Construct: from tissue; host or cells: liver microsomes of male Sprague-Dawley rats fed 5% cholestyramine diet for 5 days
Sequence (P51639 whole entry): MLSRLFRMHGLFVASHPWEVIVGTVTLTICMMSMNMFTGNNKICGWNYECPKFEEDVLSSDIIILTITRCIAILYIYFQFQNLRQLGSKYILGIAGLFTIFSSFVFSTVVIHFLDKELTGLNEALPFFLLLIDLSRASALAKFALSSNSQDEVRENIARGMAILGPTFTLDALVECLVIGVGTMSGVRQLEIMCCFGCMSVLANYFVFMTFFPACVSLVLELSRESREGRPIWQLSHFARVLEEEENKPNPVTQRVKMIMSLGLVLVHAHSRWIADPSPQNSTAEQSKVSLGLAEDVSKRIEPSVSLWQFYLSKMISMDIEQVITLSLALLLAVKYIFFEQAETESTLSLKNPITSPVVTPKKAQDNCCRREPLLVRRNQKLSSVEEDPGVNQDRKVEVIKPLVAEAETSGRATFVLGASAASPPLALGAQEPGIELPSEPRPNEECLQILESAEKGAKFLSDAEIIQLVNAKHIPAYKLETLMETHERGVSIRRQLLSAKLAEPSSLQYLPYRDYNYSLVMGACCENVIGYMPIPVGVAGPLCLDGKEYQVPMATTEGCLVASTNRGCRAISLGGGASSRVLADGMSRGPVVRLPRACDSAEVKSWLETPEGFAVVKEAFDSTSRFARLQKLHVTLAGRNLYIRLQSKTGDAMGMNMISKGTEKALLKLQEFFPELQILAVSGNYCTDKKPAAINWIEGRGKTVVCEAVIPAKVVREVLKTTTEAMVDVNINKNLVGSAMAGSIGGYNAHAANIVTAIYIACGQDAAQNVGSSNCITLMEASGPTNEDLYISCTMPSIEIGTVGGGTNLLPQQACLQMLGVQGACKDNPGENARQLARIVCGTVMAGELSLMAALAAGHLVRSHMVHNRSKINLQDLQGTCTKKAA
Assay: Inhibitory action for HMG-CoA reductase of rat's liver microsome
Format: biochemical, male Sprague-Dawley rats
Conditions: 0.5 h; at 10-^6 M; rat liver microsome (cholestyramine-fed), d,l-[3-^14 C]-HMG-CoA 0.5 mM, NADPH 20 mM, 37° C. 30 minutes
recorded.metric: inhibition at 1 µM (%)

In [3]: df
Out[3]:
                                   compound     recorded_metric  value_observed
0  COC(=O)C[C@H](O)C[C@H](O)/C=C/c1c(-c2ccc(F)cc2)n(CC(C)C)c(=O)c2ccccc12 (relative stereo)  inhibition at 1 µM            91.3
1  C=CCn1c(-c2ccc(F)cc2)c(/C=C/[C@@H](O)C[C@@H](O)CC(=O)O)c2ccccc2c1=O (relative stereo)  inhibition at 1 µM            90.6
2  CCCn1c(-c2ccc(F)cc2F)c(/C=C/[C@@H](O)C[C@@H](O)CC(=O)O)c2ccccc2c1=O (relative stereo)  inhibition at 1 µM            90.9

---

# Lookup of reported inhibition at 1 µM keyed by entry
Target: HMG-CoA reductase of rat's liver microsome (Rattus norvegicus)
Construct: from tissue; host or cells: liver microsomes of male Sprague-Dawley rats fed 5% cholestyramine diet for 5 days
Assay: Inhibitory action for HMG-CoA reductase of rat's liver microsome
Format: biochemical, male Sprague-Dawley rats
Conditions: 0.5 h; at 10-^6 M; rat liver microsome (cholestyramine-fed), d,l-[3-^14 C]-HMG-CoA 0.5 mM, NADPH 20 mM, 37° C. 30 minutes
recorded.metric: inhibition at 1 µM (%)

>>> print(df.to_string())
                                    molecule                         target_under_test  value_observed
 0  O=C(O)C[C@H](O)C[C@H](O)/C=C/c1c(-c2ccc(F)cc2)n(CCc2ccccc2)c(=O)c2ccccc12 (relative stereo)  HMG-CoA reductase of rat's liver microsome (Rattus norvegicus)            95.1
 1  O=C(O)C[C@H](O)C[C@H](O)/C=C/c1c(-c2ccc(F)cc2)n(Cc2ccccc2)c(=O)c2ccccc12 (relative stereo)  HMG-CoA reductase of rat's liver microsome (Rattus norvegicus)            89.6
 2  CCOC(=O)C[C@H](O)C[C@H](O)/C=C/c1c(-c2ccc(F)cc2)n(C)c(=O)c2ccccc12 (relative stereo)  HMG-CoA reductase of rat's liver microsome (Rattus norvegicus)            91.1
 3  COc1ccccc1CCn1c(-c2ccc(F)cc2)c(/C=C/[C@@H](O)C[C@@H](O)CC(=O)O)c2ccccc2c1=O (relative stereo)  HMG-CoA reductase of rat's liver microsome (Rattus norvegicus)            95.9
 4  CCCCCn1c(-c2ccc(F)cc2)c(/C=C/[C@@H](O)C[C@@H](O)CC(=O)O)c2ccccc2c1=O (relative stereo)  HMG-CoA reductase of rat's liver microsome (Rattus norvegicus)            96.5
 5  CC(C)n1c(-c2ccc(F)cc2)c(/C=C/[C@@H](O)C[C@@H](O)CC(=O)O)c2c(c1=O)CCCC2 (relative stereo)  HMG-CoA reductase of rat's liver microsome (Rattus norvegicus)            93.3
 6  COc1cc(F)ccc1-c1c(/C=C/[C@@H](O)C[C@@H](O)CC(=O)O)c2ccccc2c(=O)n1C(C)C (relative stereo)  HMG-CoA reductase of rat's liver microsome (Rattus norvegicus)              92
 7  O=C(O)C[C@H](O)C[C@H](O)/C=C/c1c(-c2ccc(F)cc2)n(CCc2ccccc2F)c(=O)c2ccccc12 (relative stereo)  HMG-CoA reductase of rat's liver microsome (Rattus norvegicus)            92.6
 8  CCCCCn1c(-c2ccc(F)cc2)c(/C=C/[C@@H](O)C[C@@H](O)CC(=O)OC)c2ccccc2c1=O (relative stereo)  HMG-CoA reductase of rat's liver microsome (Rattus norvegicus)            90.7
 9  Cn1c(-c2ccc(F)cc2)c(/C=C/[C@@H](O)C[C@@H](O)CC(=O)O)c2ccccc2c1=O (relative stereo)  HMG-CoA reductase of rat's liver microsome (Rattus norvegicus)              94
10  COCCn1c(-c2ccc(F)cc2)c(/C=C/[C@@H](O)C[C@@H](O)CC(=O)O)c2ccccc2c1=O (relative stereo)  HMG-CoA reductase of rat's liver microsome (Rattus norvegicus)            88.2
11  CCCn1c(-c2ccc(F)cc2C)c(/C=C/[C@@H](O)C[C@@H](O)CC(=O)O)c2ccccc2c1=O (relative stereo)  HMG-CoA reductase of rat's liver microsome (Rattus norvegicus)            90.4
12  O=C(O)C[C@H](O)C[C@H](O)/C=C/c1c(-c2ccc(F)cc2)n(CCCc2ccccc2)c(=O)c2ccccc12 (relative stereo)  HMG-CoA reductase of rat's liver microsome (Rattus norvegicus)            89.6
13  CCCn1c(-c2ccc(F)cc2)c(/C=C/[C@@H](O)C[C@@H](O)CC(=O)O)c2c(c1=O)CCCC2 (relative stereo)  HMG-CoA reductase of rat's liver microsome (Rattus norvegicus)            96.6
14  CCCn1c(-c2ccc(F)cc2)c(/C=C/[C@@H](O)C[C@@H](O)CC(=O)O)c2ccccc2c1=O [Example 49-2]  HMG-CoA reductase of rat's liver microsome (Rattus norvegicus)            97.1
15  Cc1cc(F)ccc1-c1c(/C=C/[C@@H](O)C[C@@H](O)CC(=O)O)c2ccccc2c(=O)n1C(C)C (relative stereo)  HMG-CoA reductase of rat's liver microsome (Rattus norvegicus)            90.4
16  CCn1c(-c2ccc(F)cc2)c(/C=C/[C@@H](O)C[C@@H](O)CC(=O)OC)c2ccccc2c1=O (relative stereo)  HMG-CoA reductase of rat's liver microsome (Rattus norvegicus)            94.2
17  O=C(O)C[C@H](O)C[C@H](O)/C=C/c1c(-c2ccc(F)cc2)n(CCc2ccc(Cl)cc2)c(=O)c2ccccc12 (relative stereo)  HMG-CoA reductase of rat's liver microsome (Rattus norvegicus)            95.7
18  Cc1ccc(CCn2c(-c3ccc(F)cc3)c(/C=C/[C@@H](O)C[C@@H](O)CC(=O)O)c3ccccc3c2=O)cc1 (relative stereo)  HMG-CoA reductase of rat's liver microsome (Rattus norvegicus)            93.2
19  O=C(O)C[C@H](O)C[C@H](O)/C=C/c1c(-c2ccc(F)cc2)n(CCc2cccc(F)c2)c(=O)c2ccccc12 (relative stereo)  HMG-CoA reductase of rat's liver microsome (Rattus norvegicus)            91.7
20  CC(C)n1c(-c2ccc(F)cc2)c(/C=C/[C@@H](O)C[C@@H](O)CC(=O)O)c2ccccc2c1=O (relative stereo)  HMG-CoA reductase of rat's liver microsome (Rattus norvegicus)            91.2
21  CCCCn1c(-c2ccc(F)cc2)c(/C=C/[C@@H](O)C[C@@H](O)CC(=O)O)c2ccccc2c1=O (relative stereo)  HMG-CoA reductase of rat's liver microsome (Rattus norvegicus)            95.8
22  CCCCn1c(-c2ccc(F)cc2)c(/C=C/[C@@H](O)C[C@@H](O)CC(=O)OC)c2ccccc2c1=O (relative stereo)  HMG-CoA reductase of rat's liver microsome (Rattus norvegicus)            93.4
23  CCCCCCCn1c(-c2ccc(F)cc2)c(/C=C/[C@@H](O)C[C@@H](O)CC(=O)O)c2ccccc2c1=O (relative stereo)  HMG-CoA reductase of rat's liver microsome (Rattus norvegicus)              88
